List of (E) hGARP, Cell-associated proTGFb1 (KD) values.
target: T1, recombinant human GARP-proTGFβ1 complex (Homo sapiens, UniProt P01137); assay: Octet (Biolayer Interferometry) in vitro kinetic binding; details: in M
T1 construct: made in house
T1 sequence (P01137 30-390): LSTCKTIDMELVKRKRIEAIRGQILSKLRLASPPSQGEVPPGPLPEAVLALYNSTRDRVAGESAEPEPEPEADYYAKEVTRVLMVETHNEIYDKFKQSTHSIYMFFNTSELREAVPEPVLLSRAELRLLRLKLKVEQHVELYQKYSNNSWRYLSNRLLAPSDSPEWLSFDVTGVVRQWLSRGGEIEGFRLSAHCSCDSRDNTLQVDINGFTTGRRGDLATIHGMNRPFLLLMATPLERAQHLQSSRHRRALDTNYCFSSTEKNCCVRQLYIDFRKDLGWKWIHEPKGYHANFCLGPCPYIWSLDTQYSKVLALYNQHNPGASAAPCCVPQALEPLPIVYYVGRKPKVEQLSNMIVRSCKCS
T1 sequence (Q14392 20-627 partner limits assumed): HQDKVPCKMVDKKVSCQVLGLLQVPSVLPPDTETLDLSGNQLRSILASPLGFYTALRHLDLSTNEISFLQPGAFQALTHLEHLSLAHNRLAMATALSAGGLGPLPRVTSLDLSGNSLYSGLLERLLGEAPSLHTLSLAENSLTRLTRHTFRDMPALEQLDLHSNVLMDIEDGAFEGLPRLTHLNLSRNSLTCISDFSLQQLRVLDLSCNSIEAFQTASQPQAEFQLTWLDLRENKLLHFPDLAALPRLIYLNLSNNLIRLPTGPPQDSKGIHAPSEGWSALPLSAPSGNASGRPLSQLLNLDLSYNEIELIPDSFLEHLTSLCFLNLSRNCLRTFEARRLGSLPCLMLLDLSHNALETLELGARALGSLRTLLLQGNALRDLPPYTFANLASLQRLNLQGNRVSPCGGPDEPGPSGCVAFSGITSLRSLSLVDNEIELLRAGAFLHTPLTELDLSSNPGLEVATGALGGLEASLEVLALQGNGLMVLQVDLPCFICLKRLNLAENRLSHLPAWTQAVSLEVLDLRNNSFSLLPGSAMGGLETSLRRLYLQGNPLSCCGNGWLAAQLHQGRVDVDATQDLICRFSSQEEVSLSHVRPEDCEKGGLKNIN
Number only, no unit.

Data request, read-out (E) hGARP, Cell-associated proTGFb1 (KD), for Ab20: monoclonal antibody; VH SEQ ID NO: 251, VL SEQ ID NO: 241 (antibody, V domains shown) VH: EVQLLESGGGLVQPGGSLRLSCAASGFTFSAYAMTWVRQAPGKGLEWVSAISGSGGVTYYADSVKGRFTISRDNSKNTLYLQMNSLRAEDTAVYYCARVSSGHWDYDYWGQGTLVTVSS VL: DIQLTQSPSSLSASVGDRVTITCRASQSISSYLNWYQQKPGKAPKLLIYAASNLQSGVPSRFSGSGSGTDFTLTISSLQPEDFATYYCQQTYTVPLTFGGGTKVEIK
8.84E−10

Consider the additional molecule presented here.
Need (E) hGARP, Cell-associated proTGFb1 (KD) of Ab12: monoclonal antibody; VH SEQ ID NO: 237, VL SEQ ID NO: 241 (antibody, V domains shown) VH: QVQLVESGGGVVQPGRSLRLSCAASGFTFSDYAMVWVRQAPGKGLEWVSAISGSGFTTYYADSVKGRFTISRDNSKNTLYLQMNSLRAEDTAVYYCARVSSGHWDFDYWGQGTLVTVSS VL: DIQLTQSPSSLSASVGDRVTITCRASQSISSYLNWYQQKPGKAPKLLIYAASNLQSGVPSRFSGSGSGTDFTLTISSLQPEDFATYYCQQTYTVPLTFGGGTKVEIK , thanks.
7.01E−09
